- assay-notes: compound binding in COS7 lysate, probe aLAP1, primary screen, cell lysate, small-molecule microarray (AID 1124);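 note: lysate comes from COS7 cells expressing LAP1 and is applied at 0.3 µg/mL; score merges spot fluorescence near 667 nm with signal-to-noise over triplicate slides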
- applied-conditions: probe aLAP1, fluorescence, higher = more signal
Criterion: composite z-score meeting or surpassing -0.04. Met: Satisfied. Not met: Not satisfied.

- compound: "CC(C)[C@@H](OCc1ccccc1)[C@H](C)C=NO[C@H](C)c1cn([C@@H]2COC[C@H]2O)nn1"
  class-name: "Satisfied"
- compound: "C#CCCCON=C1C[C@@H](O)[C@@H](O)[C@@H]2[C@@H]3C(=O)N(C[C@@H]4CCCO4)C(=O)[C@@H]3CC[C@H]12"
  class-name: "Satisfied"
- compound: "C[C@H]1CC[C@H]2C(=O)N[C@H](Cc3ccccc3)C(=O)N2[C@@H]1c1ccccc1"
  class-name: "Not satisfied"
- compound: "COC(=O)CC=C[C@@H](C)[C@@H](C=NOC(C)CN1CCCCc2nc(C)c(C)cc21)NS(=O)(=O)c1ccc(C)cc1 (stereo partly specified)"
  class-name: "Satisfied"
- compound: "CC[C@@H](c1ccccc1)n1c(=O)n2n(c1=O)[C@H]1[C@H](O)[C@@H]3O[C@@H]3C(=NOCc3ccccc3)[C@H]1CC2"
  class-name: "Not satisfied"

q: Is composite z-score at least -0.04? Consider "CCOC(=O)NN=C1C[C@@H](O)[C@@H](O)[C@@H]2[C@@H]3C(=O)N(c4ccc(F)cc4F)C(=O)[C@@H]3CC[C@H]12"
a: Satisfied

* * *

- assayed-system: Follistatin-related protein 3 (Homo sapiens) (UniProt O95633)
- Sequence (O95633 whole entry, looked up): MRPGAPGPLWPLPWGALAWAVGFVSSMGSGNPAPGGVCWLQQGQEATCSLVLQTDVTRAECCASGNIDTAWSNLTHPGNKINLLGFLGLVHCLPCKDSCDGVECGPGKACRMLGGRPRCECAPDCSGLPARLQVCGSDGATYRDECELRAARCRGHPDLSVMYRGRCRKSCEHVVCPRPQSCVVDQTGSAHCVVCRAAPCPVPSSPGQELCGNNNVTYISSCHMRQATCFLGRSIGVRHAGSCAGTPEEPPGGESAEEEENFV
- assay-notes: FSTL3 binders on small-molecule microarrays, primary screen, biochemical, small-molecule microarray, 635 nm fluorescence (AID 1105);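 note: score merges emission near 667 nm and signal to noise per printed spot across three slides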
- applied-conditions: FSTL3 binding, higher = more signal
Returns YES if the recorded composite z-score is greater than or equal to 0.4, and NO otherwise.

Worked examples, 3 molecules total:
- chemical-smiles: "C[C@@H](c1ccccc1)N1C(=O)[C@H]2[C@H]3[C@H](O)[C@H](O)CC(=NNC(=O)OCc4ccccc4)[C@@H]3CC[C@H]2C1=O"
  assayed-system: "Follistatin-related protein 3 (Homo sapiens) (UniProt O95633)"
  class-name: "YES"
- chemical-smiles: "CO[C@H]1COC(=O)[C@H](C)COC(=O)[C@@H](OCc2ccccc2)C=C[C@@H]1C"
  assayed-system: "Follistatin-related protein 3 (Homo sapiens) (UniProt O95633)"
  class-name: "NO"
- chemical-smiles: "CO[C@@H]1C=CCC(=O)N[C@@H](C)C(=O)OC[C@@H](OC)[C@H](C)C=CCC(=O)OC[C@H]1C"
  assayed-system: "Follistatin-related protein 3 (Homo sapiens) (UniProt O95633)"
  class-name: "YES"

q: Check the entry "COc1ccc(O[C@H]2C=C[C@@H](c3ccccc3)O[C@@H]2COC(=O)NCc2cccc3ccccc23)cc1" : does composite z-score equal or exceed 0.4?
a: NO

q: Please check the record "CC(=O)OC[C@H]1O[C@@H](ON=C2[C@H]3CCn4c(=O)n(-c5ccccc5)c(=O)n4[C@H]3[C@H](O)[C@@H]3O[C@H]23)[C@H](OC(C)=O)[C@@H](OC(C)=O)[C@@H]1OC(C)=O" and state if its composite z-score is at or above 0.4.
a: NO

q: Is the recorded value of composite z-score equal to or greater than 0.4 for this molecule? "CC(C)=CCCC(C)=CCON=C1C[C@@H](O)[C@@H](O)[C@@H]2[C@@H]3C(=O)N(Cc4ccc5c(c4)OCO5)C(=O)[C@@H]3CC[C@@H]12"
a: YES

q: Quick check: does "COc1ccc(OC[C@H]2CN3[C@@H](CC[C@@H](C)[C@@H]3c3ccc(Br)cc3)C(=O)O2)cc1" have composite z-score greater than or equal to 0.4?
a: NO

* * *

Readings of composite z-score for the listed compounds
- assayed-system: Torsin-1A-interacting protein 1 (Homo sapiens) (UniProt Q5JTV8)
- Sequence (Q5JTV8 whole entry, looked up): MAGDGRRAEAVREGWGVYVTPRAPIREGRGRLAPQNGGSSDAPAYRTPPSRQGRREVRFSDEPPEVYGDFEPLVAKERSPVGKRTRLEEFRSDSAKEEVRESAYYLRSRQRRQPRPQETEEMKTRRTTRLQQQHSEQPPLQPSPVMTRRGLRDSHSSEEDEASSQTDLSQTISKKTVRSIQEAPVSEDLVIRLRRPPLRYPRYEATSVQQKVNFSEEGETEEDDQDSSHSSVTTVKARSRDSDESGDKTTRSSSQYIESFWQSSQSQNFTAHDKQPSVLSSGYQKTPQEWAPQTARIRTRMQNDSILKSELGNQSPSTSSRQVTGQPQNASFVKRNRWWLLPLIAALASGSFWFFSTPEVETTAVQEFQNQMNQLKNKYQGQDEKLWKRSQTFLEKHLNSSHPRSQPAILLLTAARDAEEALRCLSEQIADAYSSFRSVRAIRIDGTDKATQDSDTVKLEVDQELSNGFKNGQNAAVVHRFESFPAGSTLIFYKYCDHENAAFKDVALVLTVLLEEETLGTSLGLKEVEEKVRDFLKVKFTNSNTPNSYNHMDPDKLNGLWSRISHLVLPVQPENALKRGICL
- assay-notes: LAP1 binders from COS7 cell lysate, primary screen, small-molecule microarray, 635/667 nm fluorescence (AID 1116)
- applied-conditions: COS7-hLAP1 lysate binding, 635 nm fluorescence, higher = more signal
Reply: number alone, nothing else.

These solved cases illustrate the format of a correct answer.
- chemical-smiles: "COc1ccc(O[C@H]2C=C[C@@H](C#Cc3ccccc3)O[C@@H]2CO)cc1"
  composite z-score: 0.158
- chemical-smiles: "CO[C@@H]1C=CCC(=O)N[C@@H](C)C(=O)OC[C@@H](OC)[C@H](C)C=CCC(=O)OC[C@H]1C"
  composite z-score: 0.037
- chemical-smiles: "CCOC(=O)NN=C1C[C@@H](O)[C@@H](O)[C@@H]2[C@@H]3C(=O)N(c4ccc(F)cc4F)C(=O)[C@@H]3CC[C@H]12"
  composite z-score: 0.59

q: I have this compound here, "CON=C(C)CCN1CCCCc2nc(C)c(C)cc21" , and I need its recorded composite z-score.
a: 0.445

q: For the compound shown here, "CO[C@H]1COC(=O)CCC[C@H](C)[C@@H](OC)COC(=O)CC=C[C@@H]1C" , give the reported composite z-score.
a: 0.387

q: Given the entry "COC(=O)CC=C[C@@H](C)[C@@H](C=NOC[C@@H](C)[C@H](OCc1ccccc1)C(C)C)NS(=O)(=O)c1ccc(C)cc1" , report its measured composite z-score.
a: 0.161

* * *

- System: PRMT1 (protein arginine N-methyltransferase 1)
- assay-notes: PRMT1 binders on small-molecule microarrays, primary screen, biochemical, small-molecule microarray, 635 nm fluorescence (AID 1088);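 note: binding of Prmt1 protein to compounds spotted on small-molecule microarray slides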
- applied-conditions: small-molecule microarray binding, higher = more signal
# Lookup of reported composite z-score keyed by entry

Completed entries (count: 3):
- compound: "CON(C)C(=O)c1nnc2c(n1)[nH]c1ccccc12"
  measurement: 0.194
- compound: "CC(=O)OC[C@H]1O[C@H](CC=NO[C@H](C)c2cn([C@@H]3COC[C@H]3O)nn2)C=C[C@@H]1OC(C)=O"
  measurement: 0.611
- compound: "COC(=O)[C@H](C)NC(=O)CCC1CC(OC(=O)NCCc2ccc(F)cc2)CC2(CCCC(COC(=O)NCc3ccccc3)O2)O1 (stereo not given in full)"
  measurement: 1.53

q: Which composite z-score is listed for CCOC(=O)[C@H](Cc1ccccc1)NC(=O)CCC1CC(OC(=O)NCc2cccc3ccccc23)CC2(CCCC(COC(=O)NCC3CCCCC3)O2)O1 (stereo not given in full) ?
a: 1.41

q: Any idea what its composite z-score is? The compound is "CCN1C(=O)[C@H]2[C@@H]3C(=CC[C@H]2C1=O)C(=O)[C@H]1O[C@H]1[C@H]3O"
a: 0.833

* * *

- assay-notes: yeast growth modulation, basal conditions, primary screen, YJM789 clinical isolate, OD600, 24 h (AID 1089);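 note: growth of clinical yeast isolate S. cerevisiae YJM 789 seeded 1000 cells per well; test concentration not given here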
- applied-conditions: S. cerevisiae YJM789 growth, higher = more signal, called active from +8 up or from −8 down
Reported z-score by item:
Output: the number by itself.

- compound: "CCN1C(C)=C(C(=O)OC)[C@@H](c2ccccc2)N2C(=O)[C@](O)(C(=O)OC)CC(C(C)=O)=C12"
  test-readout: "z-score"
  measurement: 0.02

q: # query: z-score of entry "CCN1C(=O)[C@H]2[C@H]3[C@H](O)[C@H](O)CC(=NOCC=C(C)CCC=C(C)C)[C@@H]3CC[C@H]2C1=O"
a: -0.56

q: Looking for the measured z-score of "C#CCCCON=C1[C@H]2CCn3c(=O)n(Cc4cc5c(cc4Cl)OCO5)c(=O)n3[C@H]2[C@H](O)[C@@H]2O[C@H]12" , can you help?
a: 0.842

q: Quick check: z-score of CC1(C)O[C@H]2OC([C@H](O)CON3C(=O)c4ccccc4C3=O)[C@H](O)[C@H]2O1 (some centres undefined) ?
a: -0.702

* * *

- assayed-system: E3 ubiquitin-protein ligase XIAP (Homo sapiens)
- assay-notes: XIAP binders, primary screen, biophysical, small-molecule microarray, fluorescence 635 nm (AID 1181);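 note: score merges 667 nm emission and signal to noise over triplicate slides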
- applied-conditions: small-molecule microarray binding, higher = more signal
test-readout: composite z-score
Lab note: write the figure by itself, no unit.

- compound: "COC(=O)[C@H](C)NC(=O)CCC1CC(OC(=O)NCc2cccc3ccccc23)CC2(CCCC(COC(=O)NCc3cccc(C(F)(F)F)c3)O2)O1 (some centres not stated)"
  composite z-score: 0.14

q: Recorded composite z-score for COC(=O)[C@H](C)NC(=O)CCC1CC(OC(=O)NCCc2ccc(F)cc2)CC2(CCCC(COC(=O)NCCc3ccccc3OC)O2)O1 (some centres not stated) , please?
a: -0.0615

q: // composite z-score lookup, key: "C[C@H]1C=CCC(=O)OC[C@H](C)C(=O)N2CCC[C@H]2C(=O)OC1"
a: -0.102

q: Requested read-out: composite z-score. Entry: C=CC[C@@H]1C=CC(ON=C(C)C)[C@@H](CO)O1 (some centres not stated)
a: -0.267

q: Find the recorded composite z-score belonging to "COCOc1ccc(Br)cc1C(=O)C=Cc1ccc2c(c1)OCO2" and report it.
a: -0.0076

q: Using the record for "CC(C)(C)N1C(=O)[C@H]2[C@H]3[C@H](O)[C@H](O)CC(=NNC(=O)OCc4ccccc4)[C@@H]3CC[C@H]2C1=O" , report its composite z-score.
a: -0.102

q: I am curious: what composite z-score value has been reported for "O=C1C=C[C@@H](O)[C@@H]2[C@@H]3C(=O)N(c4cccc(Oc5ccccc5)c4)C(=O)[C@@H]3CC[C@@H]12" ?
a: 0.242
